Give %Inh for every item shown.
Test system: CAMK2B
CONDITIONS: concentration: 1 μM,replicates: in singlicate; n = 1;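 note: KINOMEscan kinase panel screen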
Number first, unit second.

The following molecules have reported results that may help.
> print(dat)
                                   molecule  quantity  recorded.measurement
1  Cc1cccc2c(-c3ccncc3)c(-c3ccc(F)cc3)nn12.Cl [GW461487]      %Inh                    0%
2  C[C@@H](Oc1cc(-n2cnc3cc(-c4ccncc4)ccc32)sc1C(N)=O)c1ccccc1Cl [GSK479719]      %Inh                    0%
3  CNC(=O)c1ccccc1Nc1nc(Nc2cccc(CS(C)(=O)=O)c2)ncc1C.O=CO [GSK1520489]      %Inh                    0%
4  NC(=O)c1ccc(-c2cc3ncnc(SCC(=O)O)c3s2)cc1      %Inh                    0%
5  Cl.Nc1n[nH]c2cc(-c3ccccn3)ccc12 [GSK2189892]      %Inh                    0%

Provide %Inh values for the following items, in order.
1. Cn1ccc2ncnc(Oc3ccc(NC(=O)Nc4cccc(C(F)(F)F)c4)c(Cl)c3)c21
2. O=C(Nc1ccccc1)c1cccc(Oc2ccc3nccn3n2)c1
3. O=C(Nc1n[nH]c2cc(-c3ccco3)ccc12)C1CC1 [SB-737447]

Result:
1. 0%
2. 12%
3. 34%

----------
Tested on: BMPR1B
CONDITIONS: concentration: 1 μM,replicates: in singlicate; n = 1
Give %Inh for every item shown.

The following compounds have reported results that may help.
> print(dat)
                                   compound  target.entity  recorded.measurement
1  Cc1cccc(-c2nc(Nc3ccncc3)c3sccc3n2)n1 [GW869641]         BMPR1B                   82%
2  COc1cc2c(Nc3ccc(NC(=O)c4ccccc4)cc3)ncnc2cc1OCCCN1CCOCC1 [GSK301329]         BMPR1B                    0%

Provide %Inh values for the following items, in order.
1. C[C@@H](Oc1cc(-n2cnc3cc(-c4ccncc4)ccc32)sc1C(N)=O)c1ccccc1Cl [GSK479719]
2. CN(c1ccccc1CNc1nc(Nc2ccc3c(c2)CC(=O)N3)ncc1C(F)(F)F)S(C)(=O)=O
3. Cc1nnc(-c2ccc3occ(-c4ccc(S(C)=O)cc4)c3n2)o1 (stereo not drawn)
4. CCOC(=O)N1CCC(n2cnc(-c3ccc(F)cc3)c2-c2ccnc(N)n2)CC1 [SB-219952]
5. Cc1ccc(Nc2ccnc(Nc3ccc4c(c3)CS(=O)(=O)C4)n2)cc1O.Cl [GW579362]
6. O=C(Nc1cccc(Oc2ccc3nccn3n2)c1)Nc1cccc(C(F)(F)F)c1

Result:
1. 0%
2. 0%
3. 0%
4. 0%
5. 99.8%
6. 0%

Query: Name the recorded %Inh of the item Cc1n[nH]c2cc(Nc3ccnc(Nc4cccc(CN5CCOCC5)c4)n3)ccc12 [GW682569] in your answer.
Result: 87%

----------
System: PIM1
CONDITIONS: concentration: 1 μM,replicates: in singlicate; n = 1
Use 10% as the dividing line for %Inh, with the line itself on the 1 side and lower values as 0.

> print(dat)
                                   compound  target.entity  label.class
1  COc1cccc(CNC(=O)NC2CCN(c3ccnc(Nc4cc(OC)c(OC)c(OC)c4)n3)C2)c1 (centres unmarked)           PIM1            0

Query: Textbook exercise: given the entry O=C(Nc1ccc(Oc2ccc3nc(NC(=O)C4CC4)cn3n2)c(F)c1)c1cccn(-c2ccccc2)c1=O , state whether its %Inh is greater than or equal to 10%.
Result: 0

Query: Textbook exercise: given the entry O=C1NCCc2[nH]c(-c3ccncc3)cc21 , state whether its %Inh is greater than or equal to 10%.
Result: 1

Query: Textbook exercise: given the entry CNC(=O)c1ccccc1Nc1nc(Nc2cccc(CS(C)(=O)=O)c2)ncc1C.O=CO , state whether its %Inh is greater than or equal to 10%.
Result: 1

Query: Textbook exercise: given the entry CCCC(=O)Nc1n[nH]c2ncccc12 , state whether its %Inh is greater than or equal to 10%.
Result: 0

Query: Textbook exercise: given the entry C[C@@H](Oc1cc(-n2cnc3cc(-c4cnn(C)c4)ccc32)sc1C(N)=O)c1ccccc1Cl , state whether its %Inh is greater than or equal to 10%.
Result: 1

Query: Textbook exercise: given the entry COC(=O)c1cccc(NC(=O)NC2CCN(c3ccnc(Nc4cc(OC)c(OC)c(OC)c4)n3)C2)c1 (centres unmarked) , state whether its %Inh is greater than or equal to 10%.
Result: 1

FYI, the data here is from paper PMC5540273.
